Target: human GR (Homo sapiens)
Construct: U937 cells contain an endogenous glucocorticoid receptor (GR); endogenous in cells; host or cells: U937 cells stably transfected with the TNF-alpha promoter/beta-lactamase reporter
Sequence (P04150 whole entry): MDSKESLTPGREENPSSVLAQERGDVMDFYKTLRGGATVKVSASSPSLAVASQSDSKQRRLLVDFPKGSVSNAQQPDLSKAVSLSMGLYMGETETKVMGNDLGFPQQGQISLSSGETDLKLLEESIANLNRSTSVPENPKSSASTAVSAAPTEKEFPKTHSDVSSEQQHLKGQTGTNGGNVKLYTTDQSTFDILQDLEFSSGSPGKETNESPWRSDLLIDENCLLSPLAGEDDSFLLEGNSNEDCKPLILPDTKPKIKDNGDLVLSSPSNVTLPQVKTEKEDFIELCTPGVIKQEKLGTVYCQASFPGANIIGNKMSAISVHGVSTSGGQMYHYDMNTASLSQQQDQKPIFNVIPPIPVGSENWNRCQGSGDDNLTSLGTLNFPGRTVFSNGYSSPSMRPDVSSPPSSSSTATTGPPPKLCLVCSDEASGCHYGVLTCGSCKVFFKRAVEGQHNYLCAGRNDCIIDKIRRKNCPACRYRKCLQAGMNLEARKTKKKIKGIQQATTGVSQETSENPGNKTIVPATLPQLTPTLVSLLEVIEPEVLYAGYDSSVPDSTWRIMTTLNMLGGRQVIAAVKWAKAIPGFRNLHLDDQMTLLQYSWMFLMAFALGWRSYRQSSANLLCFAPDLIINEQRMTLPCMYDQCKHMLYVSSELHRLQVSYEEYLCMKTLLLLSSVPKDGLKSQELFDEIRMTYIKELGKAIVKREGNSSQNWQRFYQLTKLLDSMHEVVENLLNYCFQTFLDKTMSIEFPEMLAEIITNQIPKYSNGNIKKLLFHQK
Assay: Transrepression Assay (GITAR), TNFα-β-lactamase reporter gene in U937 cells
Type: cell-based
Settings: inflection point; U937 cells; Table 1; read-out: Transrepression U937 Cells GITAR IP
Endpoint: EC50 (nM)
Give the value, in units of nM, as a plain number.

GET /values?readout=EC50&item= CCCCN(CC(O)C(F)(F)F)C(=O)[C@H]1CCC2=Cc3c(cnn3-c3ccccc3)C[C@@]21C (stereo partly drawn) [Compound 79]
163

Try this compound next: CCCN(CC1CCCO1)C(=O)[C@H]1CCC2=Cc3c(cnn3-c3ccc(F)cc3)C[C@@]21C (stereo partly drawn) [Compound 63]
713

Try this compound next: CC1CC(C)CN(C(=O)[C@H]2CCC3=Cc4c(cnn4-c4ccc(F)cc4)C[C@@]32C)C1 (stereo partly drawn) [Compound 53]
2250

Try this compound next: C[C@]12Cc3cnn(-c4ccc(F)cc4)c3C=C1CC[C@@H]2C(=O)N1CCC(C(F)(F)F)CC1 [Compound 42]
889

Try this compound next: C[C@]12Cc3cnn(-c4ccc(F)cc4)c3C=C1CC[C@@H]2C(=O)N(CCC#N)CCC#N [Compound 13]
1080

Try this compound next: C[C@H](O)CN(CCC(F)(F)F)C(=O)[C@H]1CCC2=Cc3c(cnn3-c3ccc(F)cc3)C[C@@]21C [Compound 73]
137

Try this compound next: C[C@]12Cc3cnn(-c4ccc(F)cc4)c3C=C1CC[C@@H]2C(=O)N(CCc1ccccc1F)CC(O)C(F)(F)F (stereo partly drawn) [Compound 92]
143

Try this compound next: CC(C)CN(C[C@@H](C)O)C(=O)[C@H]1CCC2=Cc3c(cnn3-c3ccc(F)cc3)C[C@@]21C [Compound 67]
558

Try this compound next: C[C@]12Cc3cnn(-c4ccc(F)cc4)c3C=C1CC[C@@H]2C(=O)N1CCCC(CCc2ccccc2)C1 (stereo partly drawn) [Compound 20]
693

Try this compound next: CN(C(=O)[C@H]1CCC2=Cc3c(cnn3-c3ccc(F)cc3)C[C@@]21C)C1CCCCC1 [Compound 44]
1810

Try this compound next: C[C@]12Cc3cnn(-c4ccc(F)cc4)c3C=C1CC[C@@H]2C(=O)N(CCO)c1ccccc1 [Compound 68]
1020

Try this compound next: CCCN(CC1CCCO1)C(=O)[C@H]1CCC2=Cc3c(cnn3-c3ccc(F)cc3)C[C@@]21C (stereo partly drawn) [Compound 62]
688

Try this compound next: CCCN(CC(O)C(F)(F)F)C(=O)[C@H]1CCC2=Cc3c(cnn3-c3ccccc3)C[C@@]21C (stereo partly drawn) [Compound 78]
179

Try this compound next: C[C@]12Cc3cnn(-c4ccc(F)cc4)c3C=C1CC[C@@H]2C(=O)N(CCc1ccccc1F)CC(O)CC(F)(F)F (stereo partly drawn) [Compound 95]
282

Try this compound next: C[C@]12Cc3cnn(-c4ccc(F)cc4)c3C=C1CC[C@@H]2C(=O)N(CCO)Cc1cc(F)c(F)c(F)c1 [Compound 28]
1290

###

Molecular target: Glucocorticoid Receptor (Homo sapiens, UniProt P04150)
Construct: These cells express large amount of the GR and are very responsive to GC treatment; endogenous in cells; host or cells: A549 cells transiently transfected with the MMTV-LUC reporter
Experiment: Trans-Activation Modulation of Glucocorticoid Receptor (GRAMMER), MMTV-LUC reporter gene in A549 cells
Format: cell-based
Conditions: A549 cells; Emax relative to 300 nM dexamethasone; Table 1
Endpoint: Transactivation A549 Cells GRAMMER Emax (%)
Give the value, in units of %, as a plain number.

Entry C[C@]12Cc3cnn(-c4ccc(F)cc4)c3C=C1CC[C@@H]2C(=O)N(CCc1ccccc1F)CC(O)CC(F)(F)F (stereo partly drawn) [Compound 95] , system Glucocorticoid Receptor (Homo sapiens, UniProt P04150): what Transactivation A549 Cells GRAMMER Emax was measured?
46.9

Try this compound next: C[C@]12Cc3cnn(-c4ccc(F)cc4)c3C=C1CC[C@@H]2C(=O)N(CCc1ccccc1F)CC(O)CC(F)(F)F (stereo partly drawn) [Compound 87]
38.0

Try this compound next: CCN(CC(O)C(F)(F)F)C(=O)[C@H]1CCC2=Cc3c(cnn3-c3ccccc3)C[C@@]21C (stereo partly drawn) [Compound 77]
67.8
